Hello, the source for this data is patent US8012975B2, in case you need it.

Assay system HT-29; read-out recorded as IC50.
Kindly answer with a numeric value in nM, unit omitted.

Some solved entries appear below for comparison.
| molecule | recorded.number |
| --- | --- |
| COc1c(C)cc2c(c1O)[C@@H]1C3Cc4c(OC(C)=O)c(C)c5c(c4[C@H](CNC(=O)[C@H](C)NC(=O)C(F)(F)F)N3[C@@H](O)[C@H](C2)N1C)OCO5 (stereo partly drawn) [drawing 110] | 0.1 |
| COc1c(C)cc2c(c1O)[C@@H]1C3Cc4c(OC(C)=O)c(C)c5c(c4[C@H](COC(=O)/C=C/c4cccc(C(F)(F)F)c4)N3[C@@H](O)[C@H](C2)N1C)OCO5 (stereo partly drawn) [drawing 157] | 0.1 |

Attention now shifts to the item below.
Q: Any idea what IC50 was measured for C/C=C/C(=O)NC[C@H]1c2c(c(OC(C)=O)c(C)c3c2OCO3)CC2[C@H]3c4c(cc(C)c(OC)c4O)C[C@@H]([C@H](O)N21)N3C (stereo partly drawn) ?
Ans: 0.1

###

Assay system MEL-28; read-out recorded as pIC50.
pIC50 (log units): -log10 of the concentration in mol/L.

Some solved entries appear below for comparison.
| compound | pIC50 |
| --- | --- |
| CCCCCC(=O)NC[C@H]1c2c(c(OC(C)=O)c(C)c3c2OCO3)CC2[C@H]3c4c(cc(C)c(OC)c4O)C[C@@H]([C@H](C#N)N21)N3C (stereo partly drawn) [drawing 120] | 10.00 |
| COc1c(C)cc2c(c1O)[C@@H]1C3Cc4c(OC(C)=O)c(C)c5c(c4[C@H](COC(=O)CCc4ccccc4)N3[C@@H](C#N)[C@H](C2)N1C)OCO5 (stereo partly drawn) | 10.00 |

Q: Any idea what pIC50 was measured for COc1c(C)cc2c(c1O)[C@@H]1C3Cc4c(OC(C)=O)c(C)c5c(c4[C@H](CNC(=O)[C@H](C)NC(=O)Cc4ccccc4)N3[C@@H](C#N)[C@H](C2)N1C)OCO5 (stereo partly drawn) ?
Ans: 10.00

###

Tested on: HL60
Details: human
endpoint: pIC50
pIC50 (log units): -log10 of the concentration in mol/L.

| compound | pIC50 |
| --- | --- |
| COc1c(C)cc2c(c1O)[C@@H]1C3Cc4c(OC(C)=O)c(C)c5c(c4[C@H](COC(=O)/C=C/c4ccccc4)N3[C@@H](O)[C@H](C2)N1C)OCO5 (some centres unmarked) [drawing 239] | 8.51 |

Attention now shifts to the item below.
Q: Kindly state the measured pIC50 obtained for COc1c(C)cc2c(c1O)[C@@H]1C3Cc4c(OC(C)=O)c(C)c5c(c4[C@H](COC(=O)/C=C/c4ccccc4)N3[C@@H](O)[C@H](C2)N1C)OCO5 (some centres unmarked) [drawing 238] with HL60.
Ans: 7.87

###

In this section we review reported pIC50 values for a set of molecules.
Assay: in vitro
Conditions: African green monkey
pIC50 (log units): -log10 of the concentration in mol/L.

Some solved entries appear below for comparison.
| molecule | pIC50 |
| --- | --- |
| COc1c(C)cc2c(c1O)[C@@H]1C3Cc4c(O)c(C)c5c(c4[C@H](CN4C(=O)c6ccccc6C4=O)N3[C@@H](C#N)[C@H](C2)N1C)OCO5 (some centres unmarked) | 9.00 |
| CCCCCC(=O)NC[C@H]1c2c(c(OC(C)=O)c(C)c3c2OCO3)CC2[C@H]3c4c(cc(C)c(OC)c4O)C[C@@H]([C@H](C#N)N21)N3C (some centres unmarked) [drawing 120] | 10.00 |
| C=CCOc1c(C)c2c(c3c1CC1[C@H]4c5c(cc(C)c(OC)c5OCOC)C[C@@H]([C@H](C#N)N1[C@H]3CNC(=O)OCC(Cl)(Cl)Cl)N4C)OCO2 (some centres unmarked) | 6.89 |

Q: Any idea what pIC50 was measured for COC1=C(C)C(=O)C2=C3C1=NCC3N1C(C2)[C@H]2c3c(cc(C)c(OC)c3O)C[C@@H]([C@@H]1C#N)N2C (some centres unmarked) ?
Ans: 5.66

Q: // same read-out, input: COC1=C(C)C(=O)C2=C(C1=O)[C@H](CNC(=O)[C@H](C)NC(=O)C(F)(F)F)N1C(C2)[C@H]2c3c(cc(C)c(OC)c3O)C[C@@H]([C@@H]1C#N)N2C (some centres unmarked)
Ans: 7.00

###

Tested on: DU-145
Assay: Cytotoxic activity (M) panel, Prostate DU-145
Conditions: Homo sapiens, DU-145, read-out: CYTOTOXIC ACTIVITY (M) DU-145
In this section we review reported IC50 values for a set of compounds.
Field note: include the unit after the figure.

| compound | test.target | result |
| --- | --- | --- |
| COc1c(C)cc2c(c1O)[C@@H]1C3Cc4c(OC(C)=O)c(C)c5c(c4[C@H](COC(=O)/C=C/c4ccccc4)N3[C@@H](O)[C@H](C2)N1C)OCO5 (stereo partly drawn) [drawing 234] | DU-145 | 1.56e-06 M |
| COc1c(C)cc2c(c1O)[C@@H]1C3Cc4c(OC(C)=O)c(C)c5c(c4[C@H](COC(=O)/C=C/c4cccc(C(F)(F)F)c4)N3[C@@H](O)[C@H](C2)N1C)OCO5 (stereo partly drawn) [drawing 233] | DU-145 | 7.03e-08 M |

Q: Any idea what IC50 was measured for COc1c(C)cc2c(c1O)[C@@H]1C3Cc4c(OC(C)=O)c(C)c5c(c4[C@H](CNC(=O)/C=C/c4ccccc4)N3[C@@H](O)[C@H](C2)N1C)OCO5 (stereo partly drawn) [drawing 213] ?
Ans: 2.22e-09 M

###

Tested on: U-937
Assay: Cytotoxic activity (M) panel, Lymphoma Histiocytic U-937
Settings: Homo sapiens, U-937, read-out: CYTOTOXIC ACTIVITY (M) U-937
In this section we review reported IC50 values for a set of compounds.
Kindly answer with a numeric value in M, unit omitted.

| compound | test.target | recorded.number |
| --- | --- | --- |
| CCCCCC(=O)NC[C@H]1c2c(c(OC(C)=O)c(C)c3c2OCO3)CC2[C@H]3c4c(cc(C)c(OC)c4O)C[C@@H]([C@H](O)N21)N3C (stereo partly drawn) [drawing 230] | U-937 | 1.08e-09 |
| COc1c(C)cc2c(c1O)[C@@H]1C3Cc4c(OC(C)=O)c(C)c5c(c4[C@H](CNC(=O)[C@H](C)NC(=O)CCc4ccccc4)N3[C@@H](O)[C@H](C2)N1C)OCO5 (stereo partly drawn) [drawing 222] | U-937 | 5.15e-10 |
| COc1c(C)cc2c(c1O)[C@@H]1C3Cc4c(OC(C)=O)c(C)c5c(c4[C@H](CNC(=O)/C=C/c4ccccc4)N3[C@@H](O)[C@H](C2)N1C)OCO5 (stereo partly drawn) [drawing 220] | U-937 | 3.28e-11 |
| CCCC(=O)OC[C@H]1c2c(c(OC(C)=O)c(C)c3c2OCO3)CC2[C@H]3c4c(cc(C)c(OC)c4O)C[C@@H]([C@H](O)N21)N3C (stereo partly drawn) [drawing 240] | U-937 | 1.03e-08 |
| COc1c(C)cc2c(c1O)[C@@H]1C3Cc4c(OC(C)=O)c(C)c5c(c4[C@H](CNC(=O)/C=C/c4cccc(C(F)(F)F)c4)N3[C@@H](O)[C@H](C2)N1C)OCO5 (stereo partly drawn) [drawing 218] | U-937 | 1.77e-10 |

Attention now shifts to the item below.
Q: Kindly state the measured IC50 obtained for COc1c(C)cc2c(c1O)[C@@H]1C3Cc4c(OC(C)=O)c(C)c5c(c4[C@H](CNC(=O)[C@H](C)NC(=O)C(F)(F)F)N3[C@@H](O)[C@H](C2)N1C)OCO5 (stereo partly drawn) [drawing 219] with U-937.
Ans: 5.27e-11

###

Tested on: Y-79
endpoint: IC50
Field note: include the unit after the figure.

Q: Any idea what IC50 was measured for COc1c(C)cc2c(c1O)[C@@H]1C3Cc4c(OC(C)=O)c(C)c5c(c4[C@H](COC(=O)/C=C/c4ccccc4)N3[C@@H](O)[C@H](C2)N1C)OCO5 (stereo partly shown) [drawing 234] ?
Ans: 0.0778 pM

###

Assay system HT-29; read-out recorded as IC50.
Field note: include the unit after the figure.

Some solved entries appear below for comparison.
| molecule | IC50 |
| --- | --- |
| COc1c(C)cc2c(c1O)[C@@H]1C3Cc4c(OC(C)=O)c(C)c5c(c4[C@H](CNC(=O)CCc4ccccc4)N3[C@@H](O)[C@H](C2)N1C)OCO5 (stereo partly drawn) [drawing 123] | 0.1 nM |
| COc1c(C)cc2c(c1O)[C@@H]1C3Cc4c(OC(C)=O)c(C)c5c(c4[C@H](CNC(=O)/C=C/c4ccccc4)N3[C@@H](O)[C@H](C2)N1C)OCO5 (stereo partly drawn) [drawing 113] | 0.1 nM |

Attention now shifts to the item below.
Q: Any idea what IC50 was measured for C=CCOC(=O)Oc1c(C)c2c(c3c1CC1[C@H]4c5c(cc(C)c(OC)c5O)C[C@@H]([C@H](C#N)N1[C@H]3CNC(=O)/C=C/c1ccccc1)N4C)OCO2 (stereo partly drawn) ?
Ans: 0.1 nM
